tgt: SMARCA2 (Homo sapiens, UniProt P51531)
Construct: endogenous in cells; host or cells: NCI-H1299
Sequence (P51531 whole entry): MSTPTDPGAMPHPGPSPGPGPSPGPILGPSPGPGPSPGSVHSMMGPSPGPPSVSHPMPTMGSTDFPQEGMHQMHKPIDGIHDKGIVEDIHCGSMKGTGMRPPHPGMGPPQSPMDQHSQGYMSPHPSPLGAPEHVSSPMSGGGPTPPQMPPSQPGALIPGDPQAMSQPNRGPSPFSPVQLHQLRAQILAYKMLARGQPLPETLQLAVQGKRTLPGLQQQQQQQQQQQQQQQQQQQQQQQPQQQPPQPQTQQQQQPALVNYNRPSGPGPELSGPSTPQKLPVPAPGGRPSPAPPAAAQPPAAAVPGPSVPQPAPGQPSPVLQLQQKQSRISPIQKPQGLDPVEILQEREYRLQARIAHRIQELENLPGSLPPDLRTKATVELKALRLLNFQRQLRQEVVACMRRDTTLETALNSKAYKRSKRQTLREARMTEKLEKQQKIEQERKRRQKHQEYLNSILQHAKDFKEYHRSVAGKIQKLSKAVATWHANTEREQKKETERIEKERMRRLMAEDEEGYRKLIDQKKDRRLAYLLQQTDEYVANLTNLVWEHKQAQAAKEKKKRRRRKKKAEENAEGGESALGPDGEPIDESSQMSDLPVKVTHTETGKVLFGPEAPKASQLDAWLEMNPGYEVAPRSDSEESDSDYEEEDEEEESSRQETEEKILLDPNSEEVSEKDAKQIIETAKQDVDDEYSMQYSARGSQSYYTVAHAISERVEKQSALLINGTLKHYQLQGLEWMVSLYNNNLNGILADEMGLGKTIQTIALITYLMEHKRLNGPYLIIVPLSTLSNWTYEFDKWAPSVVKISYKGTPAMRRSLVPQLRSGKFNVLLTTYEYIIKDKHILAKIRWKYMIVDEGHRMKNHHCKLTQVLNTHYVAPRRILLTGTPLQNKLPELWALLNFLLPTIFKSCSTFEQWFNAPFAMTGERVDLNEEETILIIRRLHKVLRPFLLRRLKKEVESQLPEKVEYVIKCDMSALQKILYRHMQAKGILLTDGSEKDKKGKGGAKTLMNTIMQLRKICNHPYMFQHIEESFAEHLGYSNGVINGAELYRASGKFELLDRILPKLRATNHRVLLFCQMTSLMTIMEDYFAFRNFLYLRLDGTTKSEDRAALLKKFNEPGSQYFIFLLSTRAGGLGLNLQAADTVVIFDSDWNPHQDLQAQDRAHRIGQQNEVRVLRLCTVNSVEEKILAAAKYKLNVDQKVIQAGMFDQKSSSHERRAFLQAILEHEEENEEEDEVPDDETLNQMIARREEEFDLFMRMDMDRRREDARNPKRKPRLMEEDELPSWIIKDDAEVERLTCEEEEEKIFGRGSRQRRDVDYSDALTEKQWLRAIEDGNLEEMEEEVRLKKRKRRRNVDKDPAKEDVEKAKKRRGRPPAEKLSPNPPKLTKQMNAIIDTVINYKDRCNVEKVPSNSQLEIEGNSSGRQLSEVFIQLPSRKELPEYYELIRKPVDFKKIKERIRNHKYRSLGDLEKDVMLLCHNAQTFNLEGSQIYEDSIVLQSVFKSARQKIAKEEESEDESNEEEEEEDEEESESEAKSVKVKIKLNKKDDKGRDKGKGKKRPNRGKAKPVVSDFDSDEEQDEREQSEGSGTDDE
test-protocol: MSD SMARCA2 degradation in NCI-H1299 cell line
Format: cell-based
condition: NCI-H1299 cells, percentage of SMARCA2 degradation after 24 hours
experimental-readout: Dmax

Reference set (5 entries):
1) Nc1nnc(-c2ccccc2O)cc1-c1cnn(CC2CCN(CCCCCc3cccc4c3c3cccnc3n4C3CCC(=O)NC3=O)CC2)c1 (stereo not drawn) [I-98] ... > 90%
2) Nc1nnc(-c2ccccc2O)cc1-c1cnn(C2CCN(C3CCC(c4ccc5c(c4)c4cccnc4n5C4CCC(=O)NC4=O)CC3)CC2)c1 (stereo not drawn) [I-144] ... > 90%
3) Nc1nnc(-c2ccccc2O)cc1-c1cnn(C2CCCN(CCCc3ccnc4c3c3ccccc3n4C3CCC(=O)NC3=O)C2)c1 (stereo not drawn) [I-143] ... > 90%
4) Nc1nnc(-c2ccccc2O)cc1-c1ccc(CN2CCN(CCCc3ccc4c(c3)c3cccnc3n4C3CCC(=O)NC3=O)CC2)cc1 (stereo not drawn) [I-86] ... < 50%
5) Nc1nnc(-c2ccccc2O)cc1-c1ccc(CN2CCN(CCCCCc3cccc4c3c3cccnc3n4C3CCC(=O)NC3=O)CC2)cc1 (stereo not drawn) [I-78] ... 50 to 70%

Entry Nc1nnc(-c2ccccc2O)cc1-c1cnn(C2CCN(Cc3cn(Cc4ccc5c(c4)c4cccnc4n5C4CCC(=O)NC4=O)nn3)CC2)c1 (stereo not drawn) [I-146] — recorded Dmax = 70 to 90%

Entry Nc1nnc(-c2ccccc2O)cc1-c1cnn(CC2CCN(CCCCOCCCc3cccc4c3c3cccnc3n4C3CCC(=O)NC3=O)CC2)c1 (stereo not drawn) [I-89] — recorded Dmax = < 50%

Entry Nc1nnc(-c2ccccc2O)cc1N1CCN(CCCc2cccc3c2c2cccnc2n3C2CCC(=O)NC2=O)CC1 (stereo not drawn) [I-91] — recorded Dmax = < 50%

Entry CN(CCCCCc1ccnc2c1c1ccccc1n2C1CCC(=O)NC1=O)Cc1ccc(N2CCN(c3cc(-c4ccccc4O)nnc3N)CC2)cc1 (stereo not drawn) [I-102] — recorded Dmax = 50 to 70%

Entry Nc1nnc(-c2ccccc2O)cc1-c1ccc(CN2CCN(CCCCCc3ccnc4c3c3ccccc3n4C3CCC(=O)NC3=O)CC2)cc1 (stereo not drawn) [I-81] — recorded Dmax = 70 to 90%

Entry Nc1nnc(-c2ccccc2O)cc1-c1cnn(CC2CCN(CCCCc3ccc4c(c3)c3cccnc3n4C3CCC(=O)NC3=O)CC2)c1 (stereo not drawn) [I-134] — recorded Dmax = 70 to 90%

Entry Nc1nnc(-c2ccccc2O)cc1-c1cnn(CC2CCN(CCCc3cccc4c3c3cccnc3n4C3CCC(=O)NC3=O)CC2)c1 (stereo not drawn) [I-97] — recorded Dmax = > 90%

###

tgt: SMARCA2 (Homo sapiens, UniProt P51531)
Construct: endogenous in cells; host or cells: NCI-H1299
test-protocol: MSD SMARCA2 degradation in NCI-H1299 cell line
Type: cell-based
condition: NCI-H1299 cells, percentage of SMARCA2 degradation after 24 hours
experimental-readout: Dmax

Reference set (3 entries):
1. Nc1nnc(-c2ccccc2O)cc1-c1ccc(CN2CCN(CCCCOCCCc3ccc4c(c3)c3cccnc3n4C3CCC(=O)NC3=O)CC2)cc1 (stereo not shown) ... 50 to 70%
2. CN(CCCc1ccnc2c1c1ccccc1n2C1CCC(=O)NC1=O)Cc1ccc(N2CCN(c3cc(-c4ccccc4O)nnc3N)CC2)cc1 (stereo not shown) ... < 50%
3. Nc1nnc(-c2ccccc2O)cc1-c1ccc(CN2CCN(Cc3ccc4c(c3)c3cccnc3n4C3CCC(=O)NC3=O)CC2)cc1 (stereo not shown) ... < 50%

Kindly consider the entry below.
Entry Nc1nnc(-c2ccccc2O)cc1-c1ccc(CNCCOCCOCCCc2cnc3c(c2)c2ccccc2n3C2CCC(=O)NC2=O)cc1 (stereo not shown) — recorded Dmax = 70 to 90%

###

tgt: SMARCA2 (Homo sapiens)
Construct: endogenous in cells; host or cells: NCI-H1299
test-protocol: MSD SMARCA2 degradation in NCI-H1299 cell line
Format: cell-based
condition: NCI-H1299 cells, percentage of SMARCA2 degradation after 24 hours
Entries and their Dmax

Reference set (6 entries):
1. Nc1nnc(-c2ccccc2O)cc1-c1cnn(C2CCCN(CCCc3ccc4c(c3)c3cccnc3n4C3CCC(=O)NC3=O)C2)c1 (stereo not drawn) ... < 50%
2. CN(Cc1ccc(N2CCN(c3cc(-c4ccccc4O)nnc3N)CC2)cc1)Cc1cccc2c1c1cccnc1n2C1CCC(=O)NC1=O (stereo not drawn) ... < 50%
3. Nc1nnc(-c2ccccc2O)cc1N1CCN(CCCc2ccnc3c2c2ccccc2n3C2CCC(=O)NC2=O)CC1 (stereo not drawn) ... < 50%
4. Nc1nnc(-c2ccccc2O)cc1-c1cnn(CC2COC(CCCCc3ccc4c(c3)c3cccnc3n4C3CCC(=O)NC3=O)OC2)c1 (stereo not drawn) ... < 50%
5. Nc1nnc(-c2ccccc2O)cc1-c1cnn([C@H]2CCCN(CCCc3ccc4c(c3)c3cccnc3n4C3CCC(=O)NC3=O)C2)c1 (stereo partly drawn) ... 70 to 90%
6. Nc1nnc(-c2ccccc2O)cc1N1CCN(CCCCCc2ccnc3c2c2ccccc2n3C2CCC(=O)NC2=O)CC1 (stereo not drawn) ... < 50%

Entry Nc1nnc(-c2ccccc2O)cc1-c1cnn(C2CCN(CCCCCc3ccc4c(c3)c3cccnc3n4C3CCC(=O)NC3=O)CC2)c1 (stereo not drawn) — recorded Dmax = 50 to 70%

Entry Nc1nnc(-c2ccccc2O)cc1N1CC2CCC(C1)N2c1ncc(C2CCN(CCCc3ccc4c(c3)c3cccnc3n4C3CCC(=O)NC3=O)CC2)cn1 (stereo not drawn) — recorded Dmax = > 90%

Entry CN(CCCCCc1cccc2c1c1cccnc1n2C1CCC(=O)NC1=O)Cc1ccc(N2CCN(c3cc(-c4ccccc4O)nnc3N)CC2)cc1 (stereo not drawn) — recorded Dmax = < 50%

Entry Nc1nnc(-c2ccccc2O)cc1-c1cnn(C2CCN(CCCCCc3ccnc4c3c3ccccc3n4C3CCC(=O)NC3=O)CC2)c1 (stereo not drawn) — recorded Dmax = > 90%

Entry CN(Cc1ccc(N2CCN(c3cc(-c4ccccc4O)nnc3N)CC2)cc1)CC1CCN(Cc2cccc3c2c2cccnc2n3C2CCC(=O)NC2=O)CC1 (stereo not drawn) — recorded Dmax = < 50%

Entry Nc1nnc(-c2ccccc2O)cc1-c1cnn(C2CCN(CCCCc3ccc4c(c3)c3cccnc3n4C3CCC(=O)NC3=O)CC2)c1 (stereo not drawn) — recorded Dmax = > 90%

Entry Nc1nnc(-c2ccccc2O)cc1-c1ccc(CN2CCN(CCCCCCc3ccnc4c3c3ccccc3n4C3CCC(=O)NC3=O)CC2)cc1 (stereo not drawn) — recorded Dmax = 70 to 90%

Entry CN(CCCc1cccc2c1c1cccnc1n2C1CCC(=O)NC1=O)Cc1ccc(N2CCN(c3cc(-c4ccccc4O)nnc3N)CC2)cc1 (stereo not drawn) — recorded Dmax = 50 to 70%

Entry Nc1nnc(-c2ccccc2O)cc1-c1ccc(CN2CCN(CCCCCCCCc3ccc4c(c3)c3cccnc3n4C3CCC(=O)NC3=O)CC2)cc1 (stereo not drawn) — recorded Dmax = > 90%
